// reported log10 CC50 at 6 days for each item listed
# procedureText: Cytotoxicity determination in HepG2.2.15 cells (CCK-8)
# Type: cell-based
# details: human, 6 days of compound treatment, CCK-8, highest concentration 100 μM
Parameter value (number): base-10 log of CC50 at 6 days in µM.

[[record]]
compound = "COC(=O)C1=C([C@H]2CC[C@H](C(=O)O)CC2)NC(c2nccs2)=NC1c1ccc(F)cc1Cl (single isomer, unassigned)"
measuredresult = 0.94

[[record]]
compound = "CCNS(=O)(=O)N1CC(C2=C(C(=O)OC)C(c3ccc(F)cc3Cl)N=C(c3nccs3)N2)C1 (stereo not shown)"
measuredresult = 1.02

[[record]]
compound = "COC(=O)C1=C(C2CCN(S(=O)(=O)CC34CC(C(=O)O)(C3)C4)CC2)NC(c2nccs2)=NC1c1ccc(F)c(F)c1Cl (stereo not shown)"
measuredresult = 1.29

[[record]]
compound = "COC(=O)C1=C(C2CCCN(S(C)(=O)=O)C2)NC(c2nccs2)=NC1c1cccc(F)c1Cl (single isomer, unassigned) [Compound 98A]"
measuredresult = 1.06

[[record]]
compound = "COC(=O)C1=C(C2CCC(C(=O)O)C2)NC(c2nccs2)=NC1c1cccc(F)c1Cl (stereo not shown)"
measuredresult = 1.53

[[record]]
compound = "COCCNS(=O)(=O)[C@H]1CC[C@@H](C2=C(C(=O)OC)C(c3ccc(F)c(F)c3Cl)N=C(c3nccs3)N2)CC1 (single isomer, unassigned) [Compound 359B]"
measuredresult = 1.02

[[record]]
compound = "COC(=O)C1=C(C23CC(C(C)O)(C2)C3)NC(c2nccs2)=NC1c1ccc(F)cc1Cl (stereo not shown) [Compound 348B]"
measuredresult = 1.40

[[record]]
compound = "COC(=O)C1=C(C2CCN(S(=O)(=O)CCC(N)=O)CC2)NC(c2nccs2)=NC1c1ccc(F)cc1Cl (stereo not shown)"
measuredresult = 1.80


In plain terms, COC(=O)C1=C(C2CCC(S(=O)(=O)N3CCC3)CC2)NC(c2nccs2)=NC1c1ccc(F)c(F)c1Cl (stereo not shown) has a documented log10 CC50 at 6 days of 1.18

log10 CC50 at 6 days measured on COC(=O)C1=C(C2CCN(S(=O)(=O)CCC(=O)O)CC2)NC(c2nccs2)=NC1c1ccc(F)cc1Cl (stereo not shown) = 1.16

Recorded result, COC(=O)C1=C([C@H]2CC[C@@H](S(=O)(=O)N(C)C)CC2)NC(c2nccs2)=NC1c1ccc(F)c(F)c1Cl (single isomer, unassigned) [Compound 233B] , log10 CC50 at 6 days: 0.80

// sample CCOC(=O)C1=C(C2CCN(S(=O)(=O)C3CC(CC(=O)O)C3)CC2)NC(c2nccs2)=NC1c1ccc(F)c(F)c1Cl (stereo not shown) [Compound 482A] , its log10 CC50 at 6 days was 1.18

---

# Tested on: HepG2.2.15 cells
# procedureText: Cytotoxicity determination in HepG2.2.15 cells (CCK-8)
# Type: cell-based
# details: 6 days of compound treatment, CCK-8, highest concentration 100 μM
# Method: HBV replication inhibition by the compounds of this invention as well as cytotoxicity determination was determined in cells infected or transfected with HBV, or cells with stably integrated HBV, such as HepG2.2.15 cells (Sells et al. 1987). The method used herein is as follows. […] EC50 and CC50 values are calculated by the GraphPad Prism software and are averages where multiple measurements were made. […]
recordedEndpoint: CC50 (µM)
The answer is to be given in µM; state only the numeric part.

[[record]]
molecule = "COC(=O)C1=C(C2CCOC2)NC(c2nccs2)=NC1c1cccc(F)c1Cl (single isomer, unassigned) [Compound 74A]"
measuredresult = 33

[[record]]
molecule = "COC(=O)C1=C(C2CCC(C(=O)O)C2)NC(c2nccs2)=NC1c1ccc(F)cc1Cl (single isomer, unassigned) [Compound 72F]"
measuredresult = 30


Note: attention shifts to another entry.
Summary line: COC(=O)C1=C(C2CCC(NC(C)=O)C2)NC(c2nccs2)=NC1c1cccc(F)c1Cl (single isomer, unassigned) [Compound 62G] , HepG2.2.15 cells, reported CC50 = 37.1
